Measured shrunken log2 fold change, listed per entry for reference.
Test system: Escherichia coli TOP10
Assay: shrunken log2 fold change of peptide-encoding DNA abundance (4.5 h post-induction vs induction); higher = less antimicrobial activity (less host growth inhibition)
Conditions: time post-induction: 4.5 h; library: site-saturation at positions 5, 18, 19, 20
property.measured: shrunken log2 fold change

> print(dat)
                        seq          property.measured  experimental.result
 1  RRIRDRPPRLPRPRPRPTEMPRP  shrunken log2 fold change                0.367
 2  RRIRGRPPRLPRPRPRPPPQPRP  shrunken log2 fold change                 1.55
 3  RRIRNRPPRLPRPRPRPLEDPRP  shrunken log2 fold change               0.0414
 4  RRIRDRPPRLPRPRPRPSVWPRP  shrunken log2 fold change                0.404
 5  RRIRRRPPRLPRPRPRPALPPRP  shrunken log2 fold change                 0.48
 6  RRIRWRPPRLPRPRPRPEHHPRP  shrunken log2 fold change              -0.0625
 7  RRIRFRPPRLPRPRPRPCRYPRP  shrunken log2 fold change              -0.0124
 8  RRIRQRPPRLPRPRPRPHDMPRP  shrunken log2 fold change               -0.364
 9  RRIRYRPPRLPRPRPRPAFAPRP  shrunken log2 fold change              -0.0121
10  RRIRIRPPRLPRPRPRPEGDPRP  shrunken log2 fold change                0.574
11  RRIRLRPPRLPRPRPRPMGGPRP  shrunken log2 fold change                 0.26
12  RRIRKRPPRLPRPRPRPRDPPRP  shrunken log2 fold change                 1.06
13  RRIRQRPPRLPRPRPRPSSRPRP  shrunken log2 fold change                -0.14
14  RRIRRRPPRLPRPRPRPRSCPRP  shrunken log2 fold change                0.182
15  RRIRDRPPRLPRPRPRPTANPRP  shrunken log2 fold change                0.877

====

System: Escherichia coli TOP10;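 further: peptides expressed intracellularly from a pBAD plasmid library in pooled LB shake-flask culture, induced with 0.3% L-arabinose, DNA abundance read by NGS, three biological replicates, DESeq2 with apeglm shrinkage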
Assay: shrunken log2 fold change of peptide-encoding DNA abundance (4.5 h post-induction vs induction); higher = less antimicrobial activity (less host growth inhibition)
Conditions: time post-induction: 4.5 h; library: site-saturation at positions 5, 18, 19, 20
Measured shrunken log2 fold change, listed per entry for reference.
property.measured: shrunken log2 fold change

> print(dat)
                        seq  experimental.result
 1  RRIRDRPPRLPRPRPRPMMWPRP                0.156
 2  RRIRIRPPRLPRPRPRPDAYPRP              -0.0729
 3  RRIRMRPPRLPRPRPRPKDVPRP            -0.000921
 4  RRIRKRPPRLPRPRPRPRCAPRP                0.568
 5  RRIRFRPPRLPRPRPRPQMCPRP               -0.119
 6  RRIRVRPPRLPRPRPRPTDLPRP               -0.101
 7  RRIRDRPPRLPRPRPRPGLNPRP                0.184
 8  RRIRHRPPRLPRPRPRPPGNPRP                0.133
 9  RRIRGRPPRLPRPRPRPDYFPRP              -0.0114
10  RRIRIRPPRLPRPRPRPICYPRP               -0.325
11  RRIRYRPPRLPRPRPRPTIAPRP               -0.338
12  RRIRNRPPRLPRPRPRPWGSPRP               -0.275
13  RRIRYRPPRLPRPRPRPKQCPRP                -0.17
14  RRIRKRPPRLPRPRPRPKQMPRP                0.471
15  RRIRPRPPRLPRPRPRPYTAPRP                -1.06
16  RRIRFRPPRLPRPRPRPQSRPRP               0.0257
17  RRIRARPPRLPRPRPRPQMVPRP              -0.0332
18  RRIRCRPPRLPRPRPRPDHIPRP               -0.489
19  RRIRWRPPRLPRPRPRPNQPPRP                0.198
20  RRIRDRPPRLPRPRPRPFTDPRP              0.00624
21  RRIRDRPPRLPRPRPRPCFNPRP               -0.134
22  RRIRARPPRLPRPRPRPVKCPRP                 0.03
23  RRIRKRPPRLPRPRPRPSITPRP                0.846
24  RRIRGRPPRLPRPRPRPYPLPRP               -0.236
25  RRIRNRPPRLPRPRPRPHTIPRP               -0.106
26  RRIRLRPPRLPRPRPRPYDDPRP               -0.167
27  RRIRDRPPRLPRPRPRPDSTPRP             -0.00421
28  RRIRKRPPRLPRPRPRPQWSPRP              0.00166
29  RRIRFRPPRLPRPRPRPMCNPRP                -0.24
30  RRIRSRPPRLPRPRPRPKVYPRP                0.226
31  RRIRTRPPRLPRPRPRPTEPPRP                0.045
32  RRIRRRPPRLPRPRPRPQYHPRP               -0.145

Data credit: the supplement of paper PMC9112550
